All figures here come from PubChem BioAssay (NCATS).

Test system: P94_40
experimental_protocol: qHTS profiling for inhibitors of Plasmodium falciparum proliferation (AID 504749); also: nearly all actives have a fitted effect of over 60% in size
measurement_context: P. falciparum in erythrocytes, SYBR Green DNA, 72 h; series mostly up to 28.7 µM
Results filed as inconclusive are left out. Active and inactive are the calls of the source. Calls follow the shape of the dose curve; as a rule, active = well fitted inhibition curve with a large enough effect; inconclusive = small, poorly fitted or top-dose-only effect; inactive = flat fitted curve, though single readings scatter.
Valid outcomes are listed here; reply with one: true (1) for active, false (0) for inactive

Use these answered entries as a reference point.
compound: CC(C)CC(N(C)C)C1(c2ccc(Cl)cc2)CCC1 (stereo not drawn)
assigned_class: false (0)
--
compound: O=P1(NCCCl)OCCCN1CCCl (stereo not drawn)
assigned_class: false (0)
--
compound: CC(C)(N)Cc1ccc(Cl)cc1
assigned_class: false (0)
--
compound: CN1CCN(C(=O)O[C@H]2c3nccnc3C(=O)N2c2ccc(Cl)cn2)CC1
assigned_class: false (0)
--
compound: CCOC(=O)C1(c2ccccc2)CCN(CCC(C#N)(c2ccccc2)c2ccccc2)CC1
assigned_class: true (1)
--
compound: CC(=O)Nc1cc([As](=O)(O)O)ccc1O
assigned_class: false (0)
--
compound: CC(=O)[C@H]1CC[C@H]2[C@@H]3CC[C@H]4C[C@H](O)CC[C@]4(C)[C@H]3C(=O)C[C@]12C
assigned_class: false (0)
--
compound: Oc1ccccc1-c1ccccc1
assigned_class: false (0)
--
compound: O=C(O)c1ccc2[nH]cc(CCCCN3CC=C(c4ccccc4)CC3)c2c1
assigned_class: false (0)
--
compound: Nc1ccncc1
assigned_class: false (0)

What did this assay record as the result for CC[C@@H](CO)NC(=O)[C@@H]1C=C2c3cccc4[nH]cc(c34)C[C@H]2N(C)C1 ?
false (0)

Hello, I am checking results. What call was entered for CC(=O)[C@H]1CC[C@H]2[C@@H]3CC[C@H]4C[C@](C)(O)CC[C@]4(C)[C@H]3CC[C@]12C ?
false (0)

For Clc1ccc(COC(Cn2ccnc2)c2ccc(Cl)cc2Cl)cc1 (stereo not drawn) , what call appears in the results of this test?
true (1)

Hey, what did the test say about NCC(CC(=O)O)c1ccc(Cl)cc1 (stereo not drawn) ?
false (0)

# lookup: test call for Cn1c(CCCC(=O)O)nc2cc(N(CCCl)CCCl)ccc21
false (0)

Fill in: this test's call for CCOP(=S)(OCC)Oc1cc(C)nc(C(C)C)n1 is ___
false (0)

Recorded call for O=c1[nH]c2ccccc2n1CCCN1CCC(n2c(=O)[nH]c3cc(Cl)ccc32)CC1 ?
true (1)

Dear colleague, could you share the recorded outcome for CC1NCCOC1c1ccccc1 (stereo not drawn) when you have a moment?
false (0)

====

experimental_protocol: Primary qHTS to identify inhibitors of SARS-CoV-2 cell entry (AID 1645846); also: nearly all actives have a fitted effect of over 45% in size
measurement_context: SARS-CoV-2 pseudovirus cell entry assay, luminescence; series mostly up to 57.1 µM
Records with an inconclusive call do not appear. Calls of active or inactive are those of the source. Calls follow the shape of the full dose curve.
Respond with a class label; see active, inactive

Solved entries:
compound: Nc1nnc(-c2cccc(Cl)c2Cl)c(N)n1
assigned_class: inactive

compound: Nc1nc(N)c2nc(-c3ccccc3)c(N)nc2n1
assigned_class: inactive

compound: CCCc1cc(=O)[nH]c(=S)[nH]1
assigned_class: inactive

What did the test return for COc1cc(NCc2ccc3nc(N)nc(N)c3c2C)cc(OC)c1OC ?
active

Hello, I am checking results. What call was entered for O=c1c(O)c(-c2ccc(O)c(O)c2)oc2cc(O)cc(O)c12 ?
inactive

Per the records of this test, what outcome belongs to CC(=O)N[C@@H](CS)C(=O)O ?
inactive

# lookup: test call for CCCCS(=O)(=O)N[C@@H](Cc1ccc(OCCCCC2CCNCC2)cc1)C(=O)O
inactive

What did the test return for O=NN(CCCl)C(=O)NC1CCCCC1 ?
inactive

Which outcome was entered for the compound COC(=O)C1=C(C)NC(C)=C(C(=O)OC(C)C)C1c1cccc2nonc12 (centres undefined) in this test?
inactive

// return assay outcome for NCCC(O)(P(=O)(O)O)P(=O)(O)O
inactive

Per the records of this test, what outcome belongs to CCCCc1oc2ccc(NS(C)(=O)=O)cc2c1C(=O)c1ccc(OCCCN(CCCC)CCCC)cc1 ?
active

Hey, what did the test say about CCC[C@H](N[C@@H](C)C(=O)N1[C@H](C(=O)O)C[C@@H]2CCCC[C@@H]21)C(=O)OCC ?
inactive

Any idea what this test logged for NS(=O)(=O)Cc1noc2ccccc12 ?
inactive

What classification did NC12CC3CC(CC(C3)C1)C2 end up with in this test?
inactive

Query: recorded result category for COc1nc(N)nc2c1ncn2[C@@H]1O[C@H](CO)[C@@H](O)[C@@H]1O in this test
inactive

Give the logged outcome of this assay for the following compound: CN(CCOc1ccc(CC2SC(=O)NC2=O)cc1)c1ccccn1 (centres undefined)
inactive

Tell me the assay call for CCCNC(=O)NS(=O)(=O)c1ccc(Cl)cc1 please.
inactive

Entry NC(=O)OCC(COC(N)=O)c1ccccc1 : call = ?
inactive

Lab log entry: COc1cc(C(=O)NCc2ccc(OCCN(C)C)cc2)cc(OC)c1OC — outcome as called in the assay?
inactive

Query: recorded result category for O=C1c2cccc3c2[C@H](CCC3)CN1[C@@H]1CN2CCC1CC2 in this test
inactive

====

experimental_protocol: qHTS of pediatric cancer cell lines to identify multiple opportunities for drug repurposing: Primary screen for control Hh wild type fibroblast cells (AID 1347106);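 also: % is scaled to controls: 0 for no effect and ±100 for the full control effect; a drop in luminescence marks cytotoxicity and a rise apparent proliferation; nearly all actives have a fitted effect of over 55% in size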
measurement_context: Hh wild-type fibroblast viability, CellTiter-Glo luminescence, 48 h; series mostly up to 46 µM
Records with an inconclusive call do not appear. Active and inactive are the calls of the source. The call rests on the fitted dose curve; in most records, active means well fitted cell-killing curve with a large enough effect; inconclusive means small, poorly fitted or top-dose-only effect; inactive means flat fitted curve, though single readings scatter.
Hi there, use one of these labels in your reply, thanks! true (1) (active), false (0) (inactive)

Example entries and their recorded answers appear below.
compound: COC[C@@H](NC(C)=O)C(=O)NCc1ccccc1
assigned_class: false (0)
--
compound: N[C@@H](Cc1ccc(Oc2cc(I)c(O)c(I)c2)c(I)c1)C(=O)O
assigned_class: false (0)
--
compound: Nc1ccncc1
assigned_class: false (0)
--
compound: NCC1(CC(=O)O)CCCCC1
assigned_class: false (0)
--
compound: COc1ccc2c(c1OC)CN1CCc3cc4c(cc3C1C2)OCO4 (centres undefined)
assigned_class: false (0)

Fill in: this test's call for CCN(CC)C(=O)N[C@@H]1C=C2c3cccc4[nH]cc(c34)C[C@@H]2N(C)C1 is ___
false (0)

Dear all, I need the recorded test outcome for CC1OC(C)OC(C)O1 (centres undefined) , thank you.
false (0)

Given CC(C)(C)NCC(O)c1cc(Cl)c(N)c(Cl)c1 (centres undefined) , state the outcome it received in this test.
false (0)

Test call, this compound: CNC(=O)N1N=C(c2ccc(N)cc2)c2cc3c(cc2CC1C)OCO3 (centres undefined)
false (0)

How did this test come out for Oc1ccccc1-c1ccccc1 ?
false (0)

====

experimental_protocol: Stat Signaling Pathway (AID 446);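 also: ME-180 cervical cancer cells given 40 pM IL-6 alongside compound; SIE-controlled beta-lactamase reporter measured as 460/530 nm FRET emission ratio; % is scaled to controls: 0 for no effect and ±100 for the full control effect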
measurement_context: ME-180 (cervical carcinoma) SIE beta-lactamase reporter, IL-6 stimulated, 5 h; at 17.2 µM (top of the series)
Inconclusive results are not listed.
Each entry below carries its recorded activity, negative = inhibition.
Could you give me the number in %? Just the number is fine.

Reference set (5 entries):
compound: COc1ccc(Cc2nccc3cc(OC)c(OC)cc23)cc1OC
activity, negative = inhibition / %: -7.28

compound: O=P1(NCCCl)OCCCN1CCCl (stereo unspecified)
activity, negative = inhibition / %: -3.9

compound: O=C1CC[C@@]2(O)[C@H]3Cc4ccc(O)c5c4[C@@]2(CCN3CC2CC2)[C@H]1O5
activity, negative = inhibition / %: 2.9

compound: CC(CCc1ccccc1)NC(C)C(O)c1ccc(O)cc1 (stereo unspecified)
activity, negative = inhibition / %: 22.4

compound: CCC(COC(=O)c1cc(OC)c(OC)c(OC)c1)(c1ccccc1)N(C)C (stereo unspecified)
activity, negative = inhibition / %: -7.98

For the compound O=[N+]([O-])c1cc([As](=O)(O)O)ccc1O , give its measured activity, negative = inhibition value.
10.9

====

experimental_protocol: Immunotoxin (SS1P) sensitization/mitigation study. Vehicle arm (DMEM) (AID 1159513)
measurement_context: cell viability with vehicle (DMEM); series mostly up to 46.1 µM
Active and inactive are the calls of the source. No rule for the calls is given here.
Just give me one of these, please: True (active), False (inactive)

Reference set, count: 2
molecule: CO[C@@H](C(=O)N1Cc2[nH]nc(NC(=O)c3ccc(N4CCN(C)CC4)cc3)c2C1)c1ccccc1
assigned_class: True

molecule: Nc1ncn([C@@H]2O[C@H](CO)[C@@H](O)[C@H]2O)c(=O)n1
assigned_class: True

Outcome? CCC(C)(C)C(=O)O[C@H]1C[C@@H](C)C=C2C=C[C@H](C)[C@H](CC[C@@H]3C[C@@H](O)CC(=O)O3)[C@H]21
True

How was Cn1ccc2cc3c(cc21)CCN3C(=O)Nc1cccnc1 classified in this test?
False

Hey, what did the test say about C#Cc1cccc(Nc2ncnc3cc(OCCOC)c(OCCOC)cc23)c1 ?
True

Dear all, I need the recorded test outcome for Cc1nc(Nc2ncc(C(=O)Nc3c(C)cccc3Cl)s2)cc(N2CCN(CCO)CC2)n1 , thank you.
True

Please let me know the test result on file for Cc1ccc(-n2nc(C(C)(C)C)cc2NC(=O)Nc2ccc(OCCN3CCOCC3)c3ccccc23)cc1 .
False

Test call for this molecule, please: Oc1cn2c(n1)Nc1ccc(Cl)c(Cl)c1C2
True

Just curious, what result did CCC(C)n1ncn(-c2ccc(N3CCN(c4ccc(OC[C@H]5CO[C@](Cn6cncn6)(c6ccc(Cl)cc6Cl)O5)cc4)CC3)cc2)c1=O (some centres undefined) get here?
True
